Reference source: ChEMBL document CHEMBL4400545

Target: Sodium- and chloride-dependent GABA transporter 1 (Rattus norvegicus, UniProt P23978)
Assay: Inhibition of GAT-1 in rat brain homogenate
Type: tissue-based
Quantity: pIC50
Notebook: values listed as pIC50 are -log10 of the concentration (mol/L).

Query: pIC50; subject: O=C(O)[C@@H]1CCCN(CCO/N=C(\Cc2ccccc2F)c2ccccc2F)C1
7.10

----------
Molecular target: Sodium- and chloride-dependent GABA transporter 1 (Mus musculus) (UniProt P31648)
Assay: Inhibition of mouse GAT-1 assessed as percentage of remaining specific binding of NO711 at 1 uM after 4 hrs by LC-ESI-MS/ms analysis relative to control
Quantity: Activity (%)
Answer with a number only, understood to be in %.

Completed entries (count: 8):
- Compound: "O=C(O)C1CCCN(CCO/N=C/c2c[nH]c3ncccc23)C1 (racemic)"
  Activity [%]: 45
- Compound: "O=C(O)C1CCCN(CCO/N=C/c2cccc(-c3ccccc3)c2)C1 (racemic)"
  Activity [%]: 87
- Compound: "CC(C=O)(CCC#N)c1ccccc1 (configuration not stated)"
  Activity [%]: 92
- Compound: "O=C(O)C1CCCN(CCO/N=C/c2cccc(Oc3ccccc3)c2)C1 (racemic)"
  Activity [%]: 29
- Compound: "O=C(O)C1CCCN(CCO/N=C/c2ccccc2-n2cccn2)C1 (racemic)"
  Activity [%]: 37
- Compound: "O=Cc1ccc2c(c1)Cc1ccccc1-2"
  Activity [%]: 88
- Compound: "Cc1ccc(/C=N/OCCN2CCCC(C(=O)O)C2)c2ccccc12 (racemic)"
  Activity [%]: 60
- Compound: "O=C(O)C1CCCN(CCO/N=C/c2cccnc2)C1 (racemic)"
  Activity [%]: 48

Query: Activity; subject: O=Cc1ccccc1-n1cccc1
97

Now consider O=Cc1sccc1-n1cccc1 and answer again.
92

Now consider O=C(O)C1CCCN(CCO/N=C/c2cccnc2Br)C1 (racemic) and answer again.
71

Now consider COc1ccc(C=O)cc1 and answer again.
89
